Values compiled from PubChem BioAssay (NCI).

Some compounds, each annotated with its measured growth.
System: NCI-H226 lung
Test: NCI-60 one-dose screen, 48 h (100 = growth as untreated, 0 = no growth, -100 = all killed)
Settings: 10 µM unless noted
Experimental: Growth inhibition of the NCI-H226 human Non-Small Cell Lung tumor cell line is measured as a screen for anti-cancer activity. Cells are grown in 96 well plates and exposed to the test compound for 48 hours. Compounds are tested at a single concentration, which is 10^-5 M for most compounds. The reported endpoint is percent growth (GI% or GIPRCNT), where numbers from 0 - 100% represent growth inhibition, and numbers from -100% - 0 represent cell death. […]
This is part of a sample that, as a whole, favours compounds with a hit. Of some 83,000 tested, about 20% had one in any assay. The source made the active and inactive calls. The calls were made as follows: active = growth percent below 10; inactive = the rest.

Past entries and their recorded results:
C=C(C)[C@@H]1CC[C@]2(C(=O)OC)CC[C@]3(C)[C@H](CC[C@@H]4[C@@]5(C)C/C(=C/c6cccc(I)c6)C(=O)C(C)(C)[C@@H]5CC[C@]43C)[C@@H]12 : 94.2% (inactive)
C=CC(=O)Nc1cccc(-c2nc(SC)nc(Nc3ccccc3OC)c2C#N)c1 : 34.3% (inactive)
COc1ccc(-n2nc(C)c3c(Nc4ccc(NC(=O)Nc5cc(C(F)(F)F)ccc5F)cc4)ncnc32)cc1 : 73.8% (inactive)
Cc1nc(/N=C(\N)NC(=O)Nc2cccc([N+](=O)[O-])c2)sc1C : 90.5% (inactive)

Kindly review the next compound as well.
INPUT: What growth value was documented for this compound, O=c1oc2c(C(F)(F)F)cccc2cc1-c1csc(Nc2ccc(OCCF)cc2)n1 ?
OUTPUT: 17.3% (inactive)
